- experimental.target: human mGluR5 (Homo sapiens)
- Sequence (P41594 21-1180 isoform P41594-2 limits assumed): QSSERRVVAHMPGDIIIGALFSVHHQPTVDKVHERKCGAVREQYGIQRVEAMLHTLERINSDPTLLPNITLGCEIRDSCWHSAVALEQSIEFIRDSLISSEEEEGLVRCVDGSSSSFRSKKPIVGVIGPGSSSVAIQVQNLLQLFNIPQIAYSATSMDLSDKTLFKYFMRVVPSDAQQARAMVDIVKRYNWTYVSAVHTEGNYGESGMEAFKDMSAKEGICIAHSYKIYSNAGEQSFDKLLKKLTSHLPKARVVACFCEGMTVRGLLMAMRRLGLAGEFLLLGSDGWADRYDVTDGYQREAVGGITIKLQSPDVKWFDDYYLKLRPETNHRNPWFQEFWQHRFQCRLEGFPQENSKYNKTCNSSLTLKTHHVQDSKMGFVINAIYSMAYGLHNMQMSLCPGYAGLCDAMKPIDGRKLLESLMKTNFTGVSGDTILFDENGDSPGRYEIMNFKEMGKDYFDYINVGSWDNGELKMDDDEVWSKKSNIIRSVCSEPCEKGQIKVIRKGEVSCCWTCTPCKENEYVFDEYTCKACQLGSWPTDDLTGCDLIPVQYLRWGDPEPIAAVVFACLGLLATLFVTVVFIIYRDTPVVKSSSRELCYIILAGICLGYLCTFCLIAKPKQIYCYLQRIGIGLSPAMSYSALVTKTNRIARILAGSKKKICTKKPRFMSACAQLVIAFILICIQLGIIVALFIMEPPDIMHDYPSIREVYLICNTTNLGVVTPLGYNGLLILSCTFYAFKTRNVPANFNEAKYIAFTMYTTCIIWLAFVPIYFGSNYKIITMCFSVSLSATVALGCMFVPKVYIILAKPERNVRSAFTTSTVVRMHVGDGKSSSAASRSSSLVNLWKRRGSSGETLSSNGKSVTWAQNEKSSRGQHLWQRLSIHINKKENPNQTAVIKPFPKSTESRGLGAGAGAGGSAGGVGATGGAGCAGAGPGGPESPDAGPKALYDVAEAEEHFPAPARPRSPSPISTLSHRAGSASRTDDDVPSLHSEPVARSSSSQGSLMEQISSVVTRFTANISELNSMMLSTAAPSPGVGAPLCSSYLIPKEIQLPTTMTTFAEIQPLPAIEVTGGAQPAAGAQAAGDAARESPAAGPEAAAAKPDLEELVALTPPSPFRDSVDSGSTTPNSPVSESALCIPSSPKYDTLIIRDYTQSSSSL
- test.name: Cell-based functional Ca2+ mobilization assay (FDSS), potentiation of glutamate EC20 response
- details: H10H cell-line (HEK, recombinant human mGluR5); glutamate EC20; maximum average response at a single concentration, percent of maximal glutamate response
reported.metric: Emax (%)

{"compound": "C[C@H](c1ccccc1)N1CCn2nc(COc3ccccc3)cc2C1=O", "experimental.target": "human mGluR5 (Homo sapiens)", "reported.metric": "Emax", "observed.result": 59.5}
{"compound": "O=C1c2cc(COc3ccccc3)nn2CCN1Cc1cccc(F)c1", "experimental.target": "human mGluR5 (Homo sapiens)", "reported.metric": "Emax", "observed.result": 65}
{"compound": "CC1CN(Cc2ccccc2)C(=O)c2cc(COc3cccc(F)c3)nn21 (single isomer, unassigned)", "experimental.target": "human mGluR5 (Homo sapiens)", "reported.metric": "Emax", "observed.result": 70.5}
{"compound": "O=C1c2cc(COc3ccccc3)nn2CCN1Cc1cccc2cccnc12", "experimental.target": "human mGluR5 (Homo sapiens)", "reported.metric": "Emax", "observed.result": 73}
{"compound": "O=C1c2cc(COc3ccccc3)nn2CCN1Cc1ccc(C(F)(F)F)nc1", "experimental.target": "human mGluR5 (Homo sapiens)", "reported.metric": "Emax", "observed.result": 75}
{"compound": "O=C1c2cc(COc3ccccn3)nn2CCN1Cc1ccccc1", "experimental.target": "human mGluR5 (Homo sapiens)", "reported.metric": "Emax", "observed.result": 62}
{"compound": "COc1ccc(CN2CCn3nc(COc4cc(C)ccn4)cc3C2=O)cc1", "experimental.target": "human mGluR5 (Homo sapiens)", "reported.metric": "Emax", "observed.result": 61}
{"compound": "CC(c1cccnc1)N1CCn2nc(COc3ccccc3)cc2C1=O (centres unmarked)", "experimental.target": "human mGluR5 (Homo sapiens)", "reported.metric": "Emax", "observed.result": 60}
{"compound": "COc1ccc(F)cc1CN1CCn2nc(COc3ccccc3)cc2C1=O", "experimental.target": "human mGluR5 (Homo sapiens)", "reported.metric": "Emax", "observed.result": 66}
{"compound": "CC1CN(Cc2ccccc2)C(=O)c2cc(COc3cccc(C#N)c3)nn21 (single isomer, unassigned)", "experimental.target": "human mGluR5 (Homo sapiens)", "reported.metric": "Emax", "observed.result": 65}
{"compound": "Cc1ncccc1CN1CCn2nc(COc3ccccc3)cc2C1=O", "experimental.target": "human mGluR5 (Homo sapiens)", "reported.metric": "Emax", "observed.result": 67}
{"compound": "COc1ccc(CN2CCn3nc(COc4ccccc4)cc3C2=O)cc1", "experimental.target": "human mGluR5 (Homo sapiens)", "reported.metric": "Emax", "observed.result": 69}
{"compound": "COc1ccc(CN2CCn3nc(COc4ccccn4)cc3C2=O)cc1", "experimental.target": "human mGluR5 (Homo sapiens)", "reported.metric": "Emax", "observed.result": 68}
{"compound": "Cc1ccccc1CN1CCn2nc(COc3ccccc3)cc2C1=O", "experimental.target": "human mGluR5 (Homo sapiens)", "reported.metric": "Emax", "observed.result": 70}
{"compound": "N#Cc1cccc(OCc2cc3n(n2)CCN(Cc2ccccc2)C3=O)c1", "experimental.target": "human mGluR5 (Homo sapiens)", "reported.metric": "Emax", "observed.result": 53}
{"compound": "Cc1nc(CN2CCn3nc(COc4ccccc4)cc3C2=O)ccc1F", "experimental.target": "human mGluR5 (Homo sapiens)", "reported.metric": "Emax", "observed.result": 70}
{"compound": "Cc1cc(CN2CCn3nc(COc4ccccc4)cc3C2=O)ncc1F", "experimental.target": "human mGluR5 (Homo sapiens)", "reported.metric": "Emax", "observed.result": 75.5}
{"compound": "O=C1c2cc(COc3ccccc3)nn2CCN1Cc1ccc(F)cn1", "experimental.target": "human mGluR5 (Homo sapiens)", "reported.metric": "Emax", "observed.result": 69}
{"compound": "O=C1c2cc(COc3ccccc3)nn2CCN1Cc1ccncc1", "experimental.target": "human mGluR5 (Homo sapiens)", "reported.metric": "Emax", "observed.result": 68}
{"compound": "COc1cccc(F)c1CN1CCn2nc(COc3ccccc3)cc2C1=O", "experimental.target": "human mGluR5 (Homo sapiens)", "reported.metric": "Emax", "observed.result": 68}
{"compound": "CC1CN(Cc2ccccc2)C(=O)c2cc(COc3ccc(F)cc3)nn21 (single isomer, unassigned)", "experimental.target": "human mGluR5 (Homo sapiens)", "reported.metric": "Emax", "observed.result": 69.5}
{"compound": "O=C1c2cc(COc3ccccc3)nn2CCN1Cc1ccc(F)c(F)c1", "experimental.target": "human mGluR5 (Homo sapiens)", "reported.metric": "Emax", "observed.result": 68}
{"compound": "O=C1c2cc(COc3ccccc3)nn2CCN1Cc1ccccc1F", "experimental.target": "human mGluR5 (Homo sapiens)", "reported.metric": "Emax", "observed.result": 69.5}
{"compound": "COc1cccnc1CN1CCn2nc(COc3ccccc3)cc2C1=O", "experimental.target": "human mGluR5 (Homo sapiens)", "reported.metric": "Emax", "observed.result": 71}
{"compound": "Cc1cccc(OCc2cc3n(n2)C(C)CN(Cc2ccccc2)C3=O)c1 (single isomer, unassigned)", "experimental.target": "human mGluR5 (Homo sapiens)", "reported.metric": "Emax", "observed.result": 69.5}
{"compound": "COc1cncc(CN2CCn3nc(COc4ccccc4)cc3C2=O)n1", "experimental.target": "human mGluR5 (Homo sapiens)", "reported.metric": "Emax", "observed.result": 73}
